Tested on: UO-31 renal
Test: NCI-60 one-dose screen, 48 h (100 = growth as untreated, 0 = no growth, -100 = all killed)
Conditions: 10 µM unless noted
Compounds without any hit were thinned out: in the full panel of roughly 83,000, 20% have a hit.
Labelling: growth reported below 60% becomes class 1; at or above becomes class 0.

is_below(growth, 60%) for O=C(N/N=C/c1ccc(Br)o1)c1[nH]c2ccc(Br)cc2c1-c1ccccc1 ?
class 1

is_below(growth, 60%) for CCN(C(=O)CN1C(=O)/C(=C/c2ccco2)SC1=S)C1CCS(=O)(=O)C1 (stereo not drawn) ?
class 0

is_below(growth, 60%) for CC(=O)Nc1ccc(S(=O)(=O)Nc2ccc(-c3ccc4c(c3)NC(=O)/C4=C\c3ccc[nH]3)cc2)cc1 ?
class 0

is_below(growth, 60%) for N#Cc1ccc(C(=O)CSc2nc3c(c(Nc4ccc(S(N)(=O)=O)cc4)n2)CCC3)cc1 ?
class 0

is_below(growth, 60%) for O=C(O)CC1S/C(=N/N=C/c2nc3ccccc3s2)NC1=O (stereo not drawn) ?
class 1

is_below(growth, 60%) for Cn1cc(-c2cc(N)n3nc(-c4c[nH]c5ccccc45)cc3n2)c2cc(Cl)ccc21 ?
class 1

is_below(growth, 60%) for CS(=O)(=O)Nc1cccc(-n2cnc3cc(-c4ccc(O)cc4)ccc32)c1 ?
class 1

is_below(growth, 60%) for COc1c(B(O)O)cccc1-c1nc2ccc3cn[nH]c3c2c2c1CCCC2 ?
class 1

is_below(growth, 60%) for CC[C@]12C=CCN3CC[C@]4(C(=C(C(=O)OC)C1)Nc1cc(OC)c([C@@H]5[C@H]6O[C@H]6[C@@]6(CC)CC(C(=O)OC)=C7Nc8cc(O)ccc8[C@@]78CCN5[C@@H]68)cc14)[C@@H]32 ?
class 1

is_below(growth, 60%) for Cc1ccc(C2CC(c3ccc(NC(=O)Nc4ccccc4)cc3)=NN2c2ccc(S(C)(=O)=O)cc2)cc1 (stereo not drawn) ?
class 1

is_below(growth, 60%) for Nc1cc(-c2c[nH]c3ccc(Br)cc23)nc2cc(-c3c[nH]c4ccccc34)nn12 ?
class 1

is_below(growth, 60%) for COc1ccc2[nH]c(O)c(N=NC(=O)c3ccc4nc(-c5ccc(Cl)cc5)[nH]c4c3)c2c1 ?
class 0

is_below(growth, 60%) for O=C(c1ccc(O)cc1)C1[C@H](c2ccc(Cl)cc2)[C@@H](c2ccccc2)NC12C(=O)Nc1ccc(Br)cc12 (stereo partly drawn) ?
class 1

is_below(growth, 60%) for Nc1ccc(-c2ccc3ncnc(N4CCc5cc(F)c(Cl)cc54)c3c2)cn1 ?
class 1

is_below(growth, 60%) for COc1cc(/C=C/C(=O)c2cnn(-c3cc(=O)[nH]c4ccccc34)c2C)cc(OC)c1OC ?
class 1

is_below(growth, 60%) for CC(C)(C)OC(=O)N1C/C(=C\c2ccc(F)cc2)C(=O)/C(=C/c2ccc(F)cc2)C1 ?
class 1

* * *

Test system: LOX IMVI melanoma
Experiment: NCI-60 one-dose screen, 48 h
Settings: 10 µM unless noted
Compounds without any hit were thinned out: in the full panel of roughly 83,000, 20% have a hit. Calls of active or inactive are those of the source. Rule for the calls: active = growth percent below 10; inactive = the rest.
I would appreciate it if you answered using one of these outcomes: YES = active, NO = inactive

Could you check what this test reported for Cc1nc(N)ncc1-c1ccc2ncnc(N3CCc4cc(F)c(Cl)cc43)c2c1 ?
NO

Could you check what this test reported for N#CC1=C(c2cccs2)Nc2c(c(-c3ccccc3)nn2-c2ccccc2)C12C(=O)Nc1ccc(Cl)cc12 (centres undefined) ?
NO

Could you check what this test reported for CC(C)CN1C(=O)/C(=C\C(=O)c2cc3ccccc3oc2=O)c2ccccc21 ?
NO

Could you check what this test reported for O=C1Nc2cc(-c3ccc(NS(=O)(=O)c4ccc(F)c(Cl)c4)cc3)ccc2/C1=C/c1ccc[nH]1 ?
YES

Could you check what this test reported for Cc1nc2sccn2c1-c1nnc(SCC(C)C)o1 ?
NO

Could you check what this test reported for COc1ccc(SC2c3cc(OC)ccc3Oc3nc(N)c(C#N)c(N)c32)cc1 (centres undefined) ?
YES

Could you check what this test reported for O=C(CSc1nnc(-c2ccc(-c3nc4ccc(Cl)cc4[nH]3)cc2)o1)Nc1ccccc1 ?
YES

Could you check what this test reported for COc1ccc2[nH]c(=O)c(CSc3ccccc3Nc3nccc(-c4ccc(C(F)(F)F)cc4)n3)cc2c1 ?
YES

Could you check what this test reported for N#CC1=C(c2cccs2)Nc2c(c(-c3ccccc3)nn2-c2ccccc2)C12C(=O)Nc1ccccc12 (centres undefined) ?
NO

* * *

Tested on: UACC-62 melanoma
Experiment: NCI-60 one-dose screen, 48 h (100 = growth as untreated, 0 = no growth, -100 = all killed)
Details: 10 µM unless noted
Method: Growth inhibition of the UACC-62 human tumor cell line is measured as a screen for anti-cancer activity. Cells are grown in 96 well plates and exposed to the test compound for 48 hours. Compounds are tested at a single concentration, which is 10^-5 M for most compounds. The reported endpoint is percent growth (GI% or GIPRCNT), where numbers from 0 - 100% represent growth inhibition, and numbers from -100% - 0 represent cell death. For example, a value of 40 represents 60% growth inhibition. […]
The panel holds about 83,000 compounds, 20% with a hit somewhere; the sample as a whole holds those more often.
Labelling: growth reported below 70% becomes t; at or above becomes f.

is_below(growth, 70%) for CCC(=O)c1cc(C(=O)OC)c2ccc3c4ccccc4ccc3n12 ?
f

is_below(growth, 70%) for COc1c(B(O)O)cccc1-c1nc2ccc3cn[nH]c3c2c2c1CCCC2 ?
t

is_below(growth, 70%) for COc1ccc(NC(=O)Cn2c(/C=C/c3ccc([N+](=O)[O-])cc3)nc3ccccc3c2=O)cc1 ?
f

is_below(growth, 70%) for CCCCCCCCCc1ccc(C(=O)Nc2cc(C)ccc2C(=O)OC)cc1 ?
f

* * *

Tested on: OVCAR-3 ovarian
Experiment: NCI-60 one-dose screen, 48 h (100 = growth as untreated, 0 = no growth, -100 = all killed)
Conditions: 10 µM unless noted
The panel holds about 83,000 compounds, 20% with a hit somewhere; the sample as a whole holds those more often.
readoutType: growth (%)
The reply should be a number in %, with the unit left off.

Input CN1CCN(C(=O)Oc2cc3c(c4ccccc24)[C@H](CCl)CN3C(=O)c2cc3cc(OCCCN4CCC4)ccc3[nH]2)[C@H]2CSSC[C@H]21 . Output growth: -10.9

Input COc1ccc(NC(=O)Nc2nc3ccc([N+](=O)[O-])cc3s2)cc1 . Output growth: 18

Input COc1ccccc1/C=C/c1cccc(NC(=S)NCCCCN(C)C)c1 . Output growth: -48.8

Input CCCCN1C(=O)/C(=C\C(=O)c2cc3ccccc3oc2=O)c2ccccc21 . Output growth: 34.3

Input Cc1ccc(C(=O)Nc2cc(-n3ccnc3)cc(C(F)(F)F)c2)cc1-n1cc(-c2cnc3cccnn23)nn1 . Output growth: 133

Input COc1ccc2nc(NC(=O)c3ccc(N(C)C)cc3)sc2c1 . Output growth: 94.5

Input Cc1cccc(NCC(=O)N2CCN(c3ncnc4c3cnn4-c3ccccc3)CC2)c1 . Output growth: 94

Input CCN1C(=O)N(CC)C2NNC(Sc3c(C(=O)O)c4ccccc4n(CCC(C)C)c3=O)=NC21 (stereo not drawn) . Output growth: -25.4

Input Nc1cc2ccccc2c(=O)n1NC(=O)c1ccccc1 . Output growth: 70.6

Input COc1cc(NC(=O)CSc2nnc(-c3ccc(-c4nc5ccc(Cl)cc5[nH]4)cc3)o2)cc(OC)c1OC . Output growth: 21.7

Input CSc1ccc(OCc2nc3ccccc3n2-c2cccc(NS(C)(=O)=O)c2)cc1 . Output growth: 118

Input COc1cc(/C=C/C(=O)c2cnn(-c3cc(=O)[nH]c4ccc(Br)cc34)c2C)cc(OC)c1OC . Output growth: -59.1

Input Cc1ccc(C2CC(c3ccc(NC(=O)Nc4ccccc4)cc3)=NN2c2ccc(S(C)(=O)=O)cc2)cc1 (stereo not drawn) . Output growth: -2.63

Input CN1C(=O)C(O)(CC(=O)c2cc3ccccc3oc2=O)c2ccccc21 (stereo not drawn) . Output growth: 90.5

Input Cc1ccc(-c2cc(-c3ccccc3)[nH]c(=O)c2C#N)cc1 . Output growth: 98.4

Input COc1ccc(-c2cc(C(=O)N=Nc3c(O)[nH]c4ccc(Cl)cc34)c3ccccc3n2)cc1 . Output growth: 44.2

Input COc1cc(CNC(=O)[C@]23CCC(C)(C)CC2C2=CCC4[C@@]5(C)CCC(OC(C)=O)C(C)(C)C5CC[C@@]4(C)[C@]2(C)CC3)ccc1OCc1cn(-c2ccc(Cl)cc2Cl)nn1 (stereo partly drawn) . Output growth: 112

Input COc1ccc(/C=C/C(=O)c2ccc(S(=O)(=O)NCCNc3nc(N(C)C)nc(N4CCOCC4)n3)cc2)cc1 . Output growth: 100

* * *

Test system: SR leukemia
Assay: NCI-60 one-dose screen, 48 h (100 = growth as untreated, 0 = no growth, -100 = all killed)
Settings: 10 µM unless noted
This is part of a sample that, as a whole, favours compounds with a hit. Of some 83,000 tested, about 20% had one in any assay.
I would appreciate it if you labelled entries fulfilled when growth is 10% or higher, otherwise not fulfilled.

Confirm if growth reported for the compound Cc1ccc(C2CC(c3ccc(NC(=S)Nc4ccccc4)cc3)=NN2c2ccc(S(N)(=O)=O)cc2)cc1 (stereo not given) is 10% or above.
fulfilled

Confirm if growth reported for the compound CCOC(=O)c1ccc(NC(=S)NC(=O)c2cccc(NC(=O)c3ccc(C)cc3)c2)cc1 is 10% or above.
fulfilled

Confirm if growth reported for the compound Cc1ccc(C(=O)Nc2ccc(-n3ccnc3)c(C(F)(F)F)c2)cc1C#Cc1cnc2cccnn12 is 10% or above.
fulfilled

Confirm if growth reported for the compound COc1ccc2c(c1)C(Sc1ccc(F)cc1)c1c(nc(N)c(C#N)c1N)O2 (stereo not given) is 10% or above.
fulfilled

Confirm if growth reported for the compound FC(F)(F)c1cc2c(Cl)ncnc2n1CCC1CCOCC1 is 10% or above.
not fulfilled

Confirm if growth reported for the compound CN(C)CCCc1ccc(Nc2cnn(C)c(=O)c2Cl)cc1 is 10% or above.
fulfilled

Confirm if growth reported for the compound CS(=O)(=O)Nc1cc(-c2ccc3ncnc(N4CCc5cc(F)c(Cl)cc54)c3c2)cnc1Cl is 10% or above.
not fulfilled

Confirm if growth reported for the compound Fc1cccc(CNc2nc(SCCN3CCOCC3)nc3c2cnn3CC(Cl)c2ccc(Br)cc2)c1 (stereo not given) is 10% or above.
not fulfilled

Confirm if growth reported for the compound N#Cc1cc(-c2ccc3ncnc(N4CCc5cc(F)c(Cl)cc54)c3c2)cnc1N is 10% or above.
not fulfilled

Confirm if growth reported for the compound COc1ccc(-n2c(NC(=O)N3CCN(C)CC3)c(C#N)c3ccccc32)cc1 is 10% or above.
fulfilled
